The reported measurements were obtained from patent US20180185504A1.

# T½ per entry
# testedSystem: T1, hPRLR.mFc (soluble dimeric human PRLR) (human)
# T1 construct: dimeric PRLR construct
# T1 chain: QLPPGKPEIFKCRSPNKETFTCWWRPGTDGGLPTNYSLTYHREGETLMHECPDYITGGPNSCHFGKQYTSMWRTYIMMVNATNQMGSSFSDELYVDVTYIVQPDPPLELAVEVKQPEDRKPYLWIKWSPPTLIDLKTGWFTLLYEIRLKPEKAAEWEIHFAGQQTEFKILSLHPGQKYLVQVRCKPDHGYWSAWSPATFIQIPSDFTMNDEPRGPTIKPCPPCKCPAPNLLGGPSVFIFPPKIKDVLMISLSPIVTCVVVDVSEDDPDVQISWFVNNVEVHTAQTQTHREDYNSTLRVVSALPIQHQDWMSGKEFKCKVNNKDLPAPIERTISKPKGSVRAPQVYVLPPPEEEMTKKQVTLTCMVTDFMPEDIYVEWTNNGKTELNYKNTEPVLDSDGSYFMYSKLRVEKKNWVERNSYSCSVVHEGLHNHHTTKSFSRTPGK
# assayExplanation: SPR Biacore, 25 C, mAb capture
experimentalEndpoint: T½

* H1H6966N (antibody, human IgG1, V domains shown, Tested with human IgG1 Fc (H1H); also called H2M6966N) VH: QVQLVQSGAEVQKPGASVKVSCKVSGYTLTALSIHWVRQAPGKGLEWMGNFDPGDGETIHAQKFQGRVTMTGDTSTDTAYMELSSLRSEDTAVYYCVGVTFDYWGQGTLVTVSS VL: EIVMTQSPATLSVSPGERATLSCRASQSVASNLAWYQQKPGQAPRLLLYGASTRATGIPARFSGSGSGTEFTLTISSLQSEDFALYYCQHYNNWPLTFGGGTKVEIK | 4.71 h
* H1H6795P (antibody, human IgG1, V domains shown, Human IgG1 Fc (H1H)) VH: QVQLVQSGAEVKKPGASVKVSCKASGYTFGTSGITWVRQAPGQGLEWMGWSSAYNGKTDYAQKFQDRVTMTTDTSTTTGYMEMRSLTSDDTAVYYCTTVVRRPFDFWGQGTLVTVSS VL: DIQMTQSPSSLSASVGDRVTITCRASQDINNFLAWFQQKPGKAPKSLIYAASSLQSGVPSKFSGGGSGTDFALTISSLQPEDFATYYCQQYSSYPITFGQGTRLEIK | 2.28 h
* H1H6959N2 (antibody, human IgG1, V domains shown, Tested with human IgG1 Fc (H1H); also called H2M6959N2) VH: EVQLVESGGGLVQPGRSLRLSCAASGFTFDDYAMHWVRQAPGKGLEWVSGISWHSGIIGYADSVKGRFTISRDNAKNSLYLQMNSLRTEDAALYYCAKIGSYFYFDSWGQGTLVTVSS VL: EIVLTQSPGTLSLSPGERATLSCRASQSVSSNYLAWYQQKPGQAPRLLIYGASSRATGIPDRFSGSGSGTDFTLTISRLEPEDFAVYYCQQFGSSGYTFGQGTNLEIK | 0.372 h
